Test system: HEK-293T
Measurement Protocol: Multiplex assay against HEK293T
Type: toxicity, cell-based
Test Conditions: human, 24 h, 10 µM, compound concentration 10 uM, replicate 2

| Molecule | Population Fragmented Nuclei (%) |
| --- | --- |
| O=C1NCN(c2ccccc2)C12CCN(CCCOc1ccc(F)cc1)CC2 [SPIRAMIDE] | 3 |
| CN1CCCC(n2nc(Cc3ccc(Cl)cc3)c3ccccc3c2=O)CC1.Cl (stereo not drawn) [AZELASTINE HYDROCHLORIDE] | 8 |
| CN1CCN(CCOc2cc(OC3CCOCC3)c3c(Nc4c(Cl)ccc5c4OCO5)ncnc3c2)CC1 | 5 |
| CN(C)C(=O)N[C@H]1CC[C@H](CCN2CCN(c3cccc(Cl)c3Cl)CC2)CC1.Cl [CARIPRAZINE HYDROCHLORIDE] | 3 |
| CN1CCN(c2ccc(OC(F)(F)F)c(Nc3ncc4c(n3)-c3c(c(C(N)=O)nn3CCO)CC4)c2)CC1 | 5 |
| COc1ncc(-c2ccc3nccc(-c4ccnnc4)c3c2)cc1NS(=O)(=O)c1ccc(F)cc1F | 5 |
| c1cn2cc(-c3ccc4cn[nH]c4c3)nc(Nc3ccc(N4CCOCC4)cc3)c2n1 | 51 |
| COc1cc(-n2cnc3cc(-c4ccc(Cl)cc4)sc3c2=O)ccc1OCCN1CCCC1 | 20 |
